Tested on: OVCAR-5 ovarian
Assay: NCI tumour cell line growth inhibition, 48 h

molecule | targetSystem | TGI
Clc1ccc(NCc2nnc(COc3ccc(OCc4nnc(CNc5ccc(Cl)cc5)o4)c(Cl)c3)o2)cc1 | OVCAR-5 ovarian | > 100 µM
O=C(/C=C\c1cccc([N+](=O)[O-])c1)c1ccccc1 | OVCAR-5 ovarian | 18.7 µM
CSc1nc(C)cc(N(C)c2ccccc2)n1 | OVCAR-5 ovarian | > 100 µM
CCN(CC)CCC(=O)c1ccc(Oc2ccc(C)cc2)cc1 | OVCAR-5 ovarian | 41 µM
OCC1C(O)C(O)[C@@H]2SCCN12 (some centres undefined) | OVCAR-5 ovarian | > 100 µM
CCC(C)[C@H]1C(=O)N=C(N)N1C(=O)OCc1ccccc1 (some centres undefined) | OVCAR-5 ovarian | > 100 µM
NC(CCc1ccccc1)(C(=O)O)c1ccccc1 (centres undefined) | OVCAR-5 ovarian | > 100 µM
Cn1c(=O)c2c(ncn2CCCCn2ccnc2[N+](=O)[O-])n(C)c1=O | OVCAR-5 ovarian | > 100 µM
C=CC1(c2ccc(Cl)c(Cl)c2)OCCO1 | OVCAR-5 ovarian | > 100 µM
O=P(O)(O)OP(=O)(O)O | OVCAR-5 ovarian | > 100 µM
COC(=O)/C=C1/OC(c2ccc(Br)cc2)=C(Br)C1=O | OVCAR-5 ovarian | 12.5 µM
Nc1ccc(-c2nc3cc(F)ccc3s2)cc1Br | OVCAR-5 ovarian | > 100 µM
O=C1C(CN(Cc2ccccc2)Cc2ccccc2)CCCC1CN(Cc1ccccc1)Cc1ccccc1 (centres undefined) | OVCAR-5 ovarian | > 100 µM
N#Cc1cc(-c2ccccc2)[nH]c1-c1nccc2ccccc12 | OVCAR-5 ovarian | > 100 µM
CN(C)c1cc2c(cc1Sc1nc3c(N)nccc3n1CCNCC(C)(C)C)OCO2 | OVCAR-5 ovarian | 28.1 µM
[Ce+3].[Cl-].[O-]/N=C(\c1ccccc1)c1ccccn1.[O-]/N=C(\c1ccccc1)c1ccccn1.[O-]/N=C(\c1ccccc1)c1ccccn1 | OVCAR-5 ovarian | > 100 µM
COc1ccccc1/C=C1\CCC(CN(C)C)C1=O (centres undefined) | OVCAR-5 ovarian | 24.2 µM
C[C@H]1O[C@@H](O[C@H]2[C@@H](O)C[C@H](O[C@H]3[C@@H](O)C[C@H](O[C@H]4CC[C@]5(C)C6C[C@@H](O)[C@]7(C)[C@@H](C8=CC(=O)OC8)CC[C@]7(O)C6CC[C@@H]5C4)O[C@@H]3C)O[C@@H]2C)C[C@H](O)[C@@H]1O (some centres undefined) | OVCAR-5 ovarian | 0.286 µM
CCOc1cc(NC(C)=O)ccc1C(=O)N/N=C/c1ccco1 | OVCAR-5 ovarian | > 100 µM
COC(=O)C1=C2C3=C(C(=O)c4ccccc4C3=O)N(Cc3ccccc3)C2(OC(C)=O)C=CC1=O (centres undefined) | OVCAR-5 ovarian | > 100 µM
NC(=O)c1cccc(N)c1 | OVCAR-5 ovarian | > 100 µM
CC(Br)C(=O)c1ccc2cc(Br)c3ccccc3c2c1 (centres undefined) | OVCAR-5 ovarian | 31.4 µM
COc1cc(-c2nn(C)nc2-c2cc3ccccc3s2)cc(OC)c1OC | OVCAR-5 ovarian | > 100 µM
COc1ccc(C2Cc3cc(OC)c(OC)c(OC)c3C2=O)cc1 (centres undefined) | OVCAR-5 ovarian | > 100 µM
CC(=O)OC[C@@]12CC[C@H]3C(C)(C)CCC[C@]3(C)[C@H]1C[C@@H](C1=CC(=O)O[C@H]1O)O2 | OVCAR-5 ovarian | 37.8 µM
COc1ccc(Cc2cc(OC)c(OC)c(OC)c2)cc1O | OVCAR-5 ovarian | > 100 µM
Nc1sccc1S(=O)(=O)c1ccsc1N | OVCAR-5 ovarian | > 100 µM
O=C(c1ccc(F)c(F)c1Nc1ccc(I)cc1F)N1CC(O)([C@H]2CCCCN2)C1 | OVCAR-5 ovarian | 15.5 µM
CCOP(=O)(OCC)/C(=C/c1ccccc1)CC(C)=O | OVCAR-5 ovarian | > 100 µM
CCN(CC)C(=O)C1=C(C)NC(C)=C(C(=O)N(CC)CC)C1 | OVCAR-5 ovarian | > 100 µM
O=C(Nc1cccc(-n2cc(-c3ccncc3)c(-c3cc(O)cc(Cl)c3)n2)c1)Nc1ccc(Cl)c(Cl)c1 | OVCAR-5 ovarian | 6.16 µM
Cc1cc2c(cc1C)C(=O)c1ncccc1C2=O | OVCAR-5 ovarian | > 100 µM
O=C(COC(c1ccc(F)cc1)c1ccc(F)cc1)N1CCN(CCCc2ccccc2)CC1 | OVCAR-5 ovarian | 14.7 µM
CN(C)S(=O)(=O)n1ccnc1 | OVCAR-5 ovarian | > 100 µM
Nn1c(-c2ccccc2Nc2ccccc2-c2n[nH]c(=S)n2N)n[nH]c1=S | OVCAR-5 ovarian | > 50 µM
COc1cccc(C2=NN(C(C)=O)C(c3cc(OC)c(OC)c(OC)c3)C2)c1 (centres undefined) | OVCAR-5 ovarian | > 100 µM
O=C1OC(C2Cc3cc4c(cc3C2=O)CCC4)c2ccccc21 (centres undefined) | OVCAR-5 ovarian | > 100 µM
Cc1cc(O)c2c(c1O)C(=O)c1c(O)ccc(O)c1C2=O | OVCAR-5 ovarian | > 100 µM
Clc1ccc(-c2nc(-c3c[nH]c4ncccc34)cs2)cc1 | OVCAR-5 ovarian | > 100 µM
COC(=O)c1c2c(c[n+]([O-])c1C)C(=O)C(NCc1ccccc1)=CC2=O | OVCAR-5 ovarian | 2.57 µM
Cc1cc(C)nc(NC(=S)Nc2cccc(Cl)c2)c1 | OVCAR-5 ovarian | > 100 µM
COc1ccc2cc(-c3ccc(OC)c(OC)c3)c(=O)oc2c1 | OVCAR-5 ovarian | > 100 µM
O=S1(=O)COc2ccccc2-c2ncncc21 | OVCAR-5 ovarian | > 100 µM
CCCCCCCCCCCCCCCCCC(=O)[O][Sn]([CH2]CCC)([CH2]CCC)[CH2]CCC | OVCAR-5 ovarian | 0.34 µM
